Tested on: K. pneumoniae ATCC 700603
Assay: microbe, parasite or virus in culture
Conditions: ATCC 700603, 18 h
Where a SMILES comes first, the peptide text is derived from it. Bridges are numbered along the chain shown (N, C = ends). [ ]: non-standard residue; d: D form. The star is where a group is joined. dDab = NCC[C@@H](N)C(=O)O; Octanoyl = CCCCCCCC(=O)*; Dab = NCC[C@H](N)C(=O)O
Consider the following molecules; for each one, report its MIC K. pneumoniae ATCC 700603.

-- ask Request the reported MIC K. pneumoniae ATCC 700603 associated with CCCCCCCC(=O)N[C@@H](CO)C(=O)N[C@H](CCN)C(=O)N[C@H]1CCNC(=O)[C@H]([C@@H](C)O)NC(=O)[C@H](CCN)NC(=O)[C@H](CCN)NC(=O)[C@H](CC(C)C)NC(=O)[C@@H](Cc2ccccc2)NC(=O)[C@H](CCN)NC1=O [Compound 30] (Octanoyl-S[dDab][Dab][Dab][dF]L[Dab][Dab]T; lactam 3-C)
-- reply 4 µg/mL

-- ask Request the reported MIC K. pneumoniae ATCC 700603 associated with CCCCCCCC(=O)N[C@@H](CC(N)=O)C(=O)N[C@H](CCN)C(=O)N[C@H]1CCNC(=O)[C@H]([C@@H](C)O)NC(=O)[C@H](CCN)NC(=O)[C@H](CCN)NC(=O)[C@H](CC(C)C)NC(=O)[C@@H](Cc2ccccc2)NC(=O)[C@H](CCN)NC1=O [Compound 28] (Octanoyl-N[dDab][Dab][Dab][dF]L[Dab][Dab]T; lactam 3-C)
-- reply >32 µg/mL

-- ask Request the reported MIC K. pneumoniae ATCC 700603 associated with CCCCCCCC(=O)N[C@H](C(=O)N[C@@H](CCN)C(=O)N[C@@H]1CCNC(=O)[C@H]([C@@H](C)O)NC(=O)[C@H](CCN)NC(=O)[C@H](CCN)NC(=O)[C@H](CC(C)C)NC(=O)[C@@H](Cc2ccccc2)NC(=O)[C@H](CCN)NC1=O)[C@@H](C)O [Compound 19] (Octanoyl-T[Dab][dDab][Dab][dF]L[Dab][Dab]T; lactam 3-C)
-- reply >32 µg/mL

---

Tested on: S. aureus ATCC 25923
Assay: microbe, parasite or virus in culture
Details: ATCC 25923, 18 h
Where a SMILES comes first, the peptide text is derived from it. Bridges are numbered along the chain shown (N, C = ends). [ ]: non-standard residue; d: D form. The star is where a group is joined. Octanoyl = CCCCCCCC(=O)*; Orn = NCCC[C@H](N)C(=O)O; Dab = NCC[C@H](N)C(=O)O
Consider the following molecules; for each one, report its MIC S. aureus ATCC 25923.

-- ask Request the reported MIC S. aureus ATCC 25923 associated with CCCCCCCC(=O)N[C@H](C(=O)N[C@@H](Cc1c[nH]cn1)C(=O)N[C@H]1CCNC(=O)[C@H]([C@@H](C)O)NC(=O)[C@H](CCN)NC(=O)[C@H](CCN)NC(=O)[C@H](CC(C)C)NC(=O)[C@@H](Cc2ccccc2)NC(=O)[C@H](CCN)NC1=O)[C@@H](C)O [Compound 47] (Octanoyl-TH[Dab][Dab][dF]L[Dab][Dab]T; lactam 3-C)
-- reply >32 µg/mL

-- ask Request the reported MIC S. aureus ATCC 25923 associated with CCCCCCCC(=O)N[C@H](C(=O)N[C@@H](CCCN)C(=O)N[C@H]1CCNC(=O)[C@H]([C@@H](C)O)NC(=O)[C@H](CCN)NC(=O)[C@H](CCN)NC(=O)[C@H](CC(C)C)NC(=O)[C@@H](Cc2ccccc2)NC(=O)[C@H](CCN)NC1=O)[C@@H](C)O [Compound 40] (Octanoyl-T[Orn][Dab][Dab][dF]L[Dab][Dab]T; lactam 3-C)
-- reply >32 µg/mL

-- ask Request the reported MIC S. aureus ATCC 25923 associated with CCCCCCCC(=O)N[C@H](C(=O)N[C@@H](CCCNC(=N)N)C(=O)N[C@H]1CCNC(=O)[C@H]([C@@H](C)O)NC(=O)[C@H](CCN)NC(=O)[C@H](CCN)NC(=O)[C@H](CC(C)C)NC(=O)[C@@H](Cc2ccccc2)NC(=O)[C@H](CCN)NC1=O)[C@@H](C)O [Compound 45] (Octanoyl-TR[Dab][Dab][dF]L[Dab][Dab]T; lactam 3-C)
-- reply >32 µg/mL

---

Test system: K. pneumoniae ATCC 13833
Assay: microbe, parasite or virus in culture
Conditions: ATCC 13833, 18 h
Where a SMILES comes first, the peptide text is derived from it. Bridges are numbered along the chain shown (N, C = ends). [ ]: non-standard residue; d: D form. The star is where a group is joined. Decanoyl(3R-OH) = CCCCCCC[C@@H](O)CC(=O)*; Butanoyl(4-OPh) = O=C(CCCOc1ccccc1)*; Cit = NC(=O)NCCC[C@H](N)C(=O)O; dDab = NCC[C@@H](N)C(=O)O; Octanoyl = CCCCCCCC(=O)*; Dab = NCC[C@H](N)C(=O)O
READOUT: MIC K. pneumoniae ATCC 13833

-- ask Identify the measured MIC K. pneumoniae ATCC 13833 of CCCCCCCC(=O)N[C@H](C(=O)N[C@@H](CCCNC(=N)N)C(=O)N[C@H]1CCNC(=O)[C@H]([C@@H](C)O)NC(=O)[C@H](CCN)NC(=O)[C@H](CCN)NC(=O)[C@H](CC(C)C)NC(=O)[C@@H](Cc2ccccc2)NC(=O)[C@H](CCN)NC1=O)[C@@H](C)O [Compound 45] (Octanoyl-TR[Dab][Dab][dF]L[Dab][Dab]T; lactam 3-C) for K. pneumoniae ATCC 13833.
-- reply >32 mg/L

-- ask Identify the measured MIC K. pneumoniae ATCC 13833 of CC(C)C[C@@H]1NC(=O)[C@@H](Cc2ccccc2)NC(=O)[C@H](CCN)NC(=O)[C@@H](NC(=O)CNC(=O)[C@@H](NC(=O)CCCOc2ccccc2)[C@@H](C)O)CCNC(=O)[C@H]([C@@H](C)O)NC(=O)[C@H](CCN)NC(=O)[C@H](CCN)NC1=O [Compound 51] ({Butanoyl(4-OPh)}-TG[Dab][Dab][dF]L[Dab][Dab]T; lactam 3-C) for K. pneumoniae ATCC 13833.
-- reply >32 mg/L

-- ask Identify the measured MIC K. pneumoniae ATCC 13833 of CCCCCCCC(=O)N[C@H](C(=O)N[C@@H](CCCNC(N)=O)C(=O)N[C@H]1CCNC(=O)[C@H]([C@@H](C)O)NC(=O)[C@H](CCN)NC(=O)[C@H](CCN)NC(=O)[C@H](CC(C)C)NC(=O)[C@@H](Cc2ccccc2)NC(=O)[C@H](CCN)NC1=O)[C@@H](C)O [Compound 44] (Octanoyl-T[Cit][Dab][Dab][dF]L[Dab][Dab]T; lactam 3-C) for K. pneumoniae ATCC 13833.
-- reply >32 mg/L

-- ask Identify the measured MIC K. pneumoniae ATCC 13833 of CCCCCCCC(=O)N[C@@H](CCC(=O)O)C(=O)N[C@H](CCN)C(=O)N[C@H]1CCNC(=O)[C@H]([C@@H](C)O)NC(=O)[C@H](CCN)NC(=O)[C@H](CCN)NC(=O)[C@H](CC(C)C)NC(=O)[C@@H](Cc2ccccc2)NC(=O)[C@H](CCN)NC1=O [Compound 32] (Octanoyl-E[dDab][Dab][Dab][dF]L[Dab][Dab]T; lactam 3-C) for K. pneumoniae ATCC 13833.
-- reply >32 mg/L

-- ask Identify the measured MIC K. pneumoniae ATCC 13833 of CCCCCCC[C@@H](O)CC(=O)N[C@H](C(=O)NCC(=O)N[C@H]1CCNC(=O)[C@H]([C@@H](C)O)NC(=O)[C@H](CCN)NC(=O)[C@H](CCN)NC(=O)[C@H](CC(C)C)NC(=O)[C@@H](Cc2ccccc2)NC(=O)[C@H](CCN)NC1=O)[C@@H](C)O [Compound 52] ({Decanoyl(3R-OH)}-TG[Dab][Dab][dF]L[Dab][Dab]T; lactam 3-C) for K. pneumoniae ATCC 13833.
-- reply >32 mg/L

-- ask Identify the measured MIC K. pneumoniae ATCC 13833 of CCCCCCCC(=O)N[C@H](C(=O)N[C@H](CCCCN)C(=O)N[C@H]1CCNC(=O)[C@H]([C@@H](C)O)NC(=O)[C@H](CCN)NC(=O)[C@H](CCN)NC(=O)[C@H](CC(C)C)NC(=O)[C@@H](Cc2ccccc2)NC(=O)[C@H](CCN)NC1=O)[C@@H](C)O [Compound 43] (Octanoyl-T[dK][Dab][Dab][dF]L[Dab][Dab]T; lactam 3-C) for K. pneumoniae ATCC 13833.
-- reply >32 mg/L

---

Tested on: E. coli ATCC 25922
Assay: microbe, parasite or virus in culture
Conditions: ATCC 25922, 18 h
Where a SMILES comes first, the peptide text is derived from it. Bridges are numbered along the chain shown (N, C = ends). [ ]: non-standard residue; d: D form. The star is where a group is joined. Benzoyl(4-hexyl) = CCCCCCc1ccc(C(=O)*)cc1; Butanoyl(4-OPh) = O=C(CCCOc1ccccc1)*; dDab = NCC[C@@H](N)C(=O)O; Octanoyl = CCCCCCCC(=O)*; Dab = NCC[C@H](N)C(=O)O
READOUT: MIC E. coli ATCC 25922 (µg/mL)
Give the number; µg/mL is assumed, so skip it.

-- ask Request the reported MIC E. coli ATCC 25922 associated with CCCCCCCC(=O)N[C@H](C(=O)N[C@H](CCCCN)C(=O)N[C@H]1CCNC(=O)[C@H]([C@@H](C)O)NC(=O)[C@H](CCN)NC(=O)[C@H](CCN)NC(=O)[C@H](CC(C)C)NC(=O)[C@@H](Cc2ccccc2)NC(=O)[C@H](CCN)NC1=O)[C@@H](C)O [Compound 43] (Octanoyl-T[dK][Dab][Dab][dF]L[Dab][Dab]T; lactam 3-C)
-- reply 1

-- ask Request the reported MIC E. coli ATCC 25922 associated with CC(C)C[C@@H]1NC(=O)[C@@H](Cc2ccccc2)NC(=O)[C@H](CCN)NC(=O)[C@@H](NC(=O)[C@@H](CCN)NC(=O)[C@@H](NC(=O)CCCOc2ccccc2)[C@@H](C)O)CCNC(=O)[C@H]([C@@H](C)O)NC(=O)[C@H](CCN)NC(=O)[C@H](CCN)NC1=O [Compound 26] ({Butanoyl(4-OPh)}-T[dDab][Dab][Dab][dF]L[Dab][Dab]T; lactam 3-C)
-- reply 1

-- ask Request the reported MIC E. coli ATCC 25922 associated with CCCCCCCC(=O)N[C@H](C(=O)N[C@@H](CCN)C(=O)N[C@H]1CCCCNC(=O)[C@H]([C@@H](C)O)NC(=O)[C@H](CCN)NC(=O)[C@H](CCN)NC(=O)[C@H](CC(C)C)NC(=O)[C@@H](Cc2ccccc2)NC(=O)[C@H](CCN)NC1=O)[C@@H](C)O [Compound 18] (Octanoyl-T[Dab]K[Dab][dF]L[Dab][Dab]T; lactam 3-C)
-- reply 16

-- ask Request the reported MIC E. coli ATCC 25922 associated with CCCCCCc1ccc(C(=O)N[C@H](C(=O)N[C@@H](CCN)C(=O)N[C@H]2CCNC(=O)[C@H]([C@@H](C)O)NC(=O)[C@H](CCN)NC(=O)[C@H](CCN)NC(=O)[C@H](CC(C)C)NC(=O)[C@@H](Cc3ccccc3)NC(=O)[C@H](CCN)NC2=O)[C@@H](C)O)cc1 [Compound 12] ({Benzoyl(4-hexyl)}-T[Dab][Dab][Dab][dF]L[Dab][Dab]T; lactam 3-C)
-- reply 2

-- ask Request the reported MIC E. coli ATCC 25922 associated with CCCCCCCC(=O)N[C@H](C(=O)N[C@@H](Cc1c[nH]cn1)C(=O)N[C@H]1CCNC(=O)[C@H]([C@@H](C)O)NC(=O)[C@H](CCN)NC(=O)[C@H](CCN)NC(=O)[C@H](CC(C)C)NC(=O)[C@@H](Cc2ccccc2)NC(=O)[C@H](CCN)NC1=O)[C@@H](C)O [Compound 47] (Octanoyl-TH[Dab][Dab][dF]L[Dab][Dab]T; lactam 3-C)
-- reply 4
